System: Escherichia coli
Test: Minimum inhibitory concentration against Escherichia coli Vogel
Assay type: functional
Conditions: Escherichia coli; read-out: MIC
value_kind: MIC (µg/mL)

compound: NC1CN(c2nc3c(cc2F)c(=O)c(C(=O)O)cn3C2CC2)CC1c1ccc(F)cc1 (trans isomer)
study_target: Escherichia coli
value_kind: MIC
result_value: 0.1
--
compound: CC(C)c1ccc(C2CN(c3nc4c(cc3F)c(=O)c(C(=O)O)cn4C3CC3)CC2N)cc1 (trans isomer)
study_target: Escherichia coli
value_kind: MIC
result_value: 0.4
--
compound: Nc1ccc(C2CN(c3c(F)cc4c(=O)c(C(=O)O)cn(C5CC5)c4c3F)CC2N)cc1 (trans isomer)
study_target: Escherichia coli
value_kind: MIC
result_value: 0.05
--
compound: CC(C)c1ccc(C2CN(c3c(F)cc4c(=O)c(C(=O)O)cn(C5CC5)c4c3F)CC2N)cc1 (trans isomer)
study_target: Escherichia coli
value_kind: MIC
result_value: 0.4
--
compound: CCOC(=O)C1CC1C1CN(c2cc3c(cc2F)c(=O)c(C(=O)O)cn3C2CC2)CC1N (trans isomer)
study_target: Escherichia coli
value_kind: MIC
result_value: 0.2
--
compound: NCc1cccc(C2CN(c3nc4c(cc3F)c(=O)c(C(=O)O)cn4C3CC3)CC2N)c1 (trans isomer)
study_target: Escherichia coli
value_kind: MIC
result_value: 0.8
--
compound: Nc1c(F)c(N2CC(N)C(c3ccc(F)cc3)C2)c(F)c2c1c(=O)c(C(=O)O)cn2C1CC1 (trans isomer)
study_target: Escherichia coli
value_kind: MIC
result_value: 0.1
--
compound: NCC1CN(c2nc3c(cc2F)c(=O)c(C(=O)O)cn3C2CC2)CC1c1ccccc1 (trans isomer)
study_target: Escherichia coli
value_kind: MIC
result_value: 0.05
--
compound: NCC1CN(c2c(F)cc3c(=O)c(C(=O)O)cn(C4CC4)c3c2F)CC1c1ccccc1 (trans isomer)
study_target: Escherichia coli
value_kind: MIC
result_value: 0.05
--
compound: COC(=O)c1ccc(C2CN(c3nc4c(cc3F)c(=O)c(C(=O)O)cn4C3CC3)CC2N)cc1 (trans isomer)
study_target: Escherichia coli
value_kind: MIC
result_value: 0.4
--
compound: NCC1CN(c2c(F)c(N)c3c(=O)c(C(=O)O)cn(C4CC4)c3c2F)CC1c1ccc(N)cc1 (trans isomer)
study_target: Escherichia coli
value_kind: MIC
result_value: 0.1
--
compound: Nc1ccc(C2CN(c3nc4c(cc3F)c(=O)c(C(=O)O)cn4C3CC3)CC2N)cc1 (trans isomer)
study_target: Escherichia coli
value_kind: MIC
result_value: 0.1
--
compound: NCc1cccc(C2CN(c3nc4c(cc3F)c(=O)c(C(=O)O)cn4C3CC3)CC2CN)c1 (trans isomer)
study_target: Escherichia coli
value_kind: MIC
result_value: 3.1
--
compound: NCc1cccc(C2CN(c3c(F)cc4c(=O)c(C(=O)O)cn(C5CC5)c4c3F)CC2CN)c1 (trans isomer)
study_target: Escherichia coli
value_kind: MIC
result_value: 1.6
--
compound: NC1CN(c2c(F)cc3c(=O)c(C(=O)O)cn(C4CC4)c3c2F)CC1c1ccc(O)cc1 (trans isomer)
study_target: Escherichia coli
value_kind: MIC
result_value: 0.1
--
compound: COc1ccc(C2CN(c3c(F)cc4c(=O)c(C(=O)O)cn(C5CC5)c4c3F)CC2N)cc1 (trans isomer)
study_target: Escherichia coli
value_kind: MIC
result_value: 0.1

---

Reported MIC is given for each of the following compounds.
Test system: Streptococcus pyogenes
Assay: Minimum inhibitory concentration against Streptococcus pyogenes C-203
Assay type: functional
Details: Streptococcus pyogenes; read-out: MIC
value_kind: MIC (µg/mL)

compound: NCC1CN(c2c(F)cc3c(=O)c(C(=O)O)cn(C4CC4)c3c2F)CC1c1ccco1 (centres undefined)
study_target: Streptococcus pyogenes
result_value: 0.013

compound: NC1CN(c2cc3c(cc2F)c(=O)c(C(=O)O)cn3C2CC2)CC1C1CC1 (centres undefined)
study_target: Streptococcus pyogenes
result_value: 0.1

compound: CCOC(=O)C1CC1C1CN(c2nc3c(cc2F)c(=O)c(C(=O)O)cn3C2CC2)CC1N (trans isomer)
study_target: Streptococcus pyogenes
result_value: 1.6

compound: CC(C)c1ccc(C2CN(c3nc4c(cc3F)c(=O)c(C(=O)O)cn4C3CC3)CC2N)cc1 (trans isomer)
study_target: Streptococcus pyogenes
result_value: 0.4

---

Reported MIC is given for each of the following molecules.
Tested on: Enterococcus faecalis
Assay: Minimum inhibitory concentration against […] MGH-2
Type: functional
Conditions: Enterococcus faecalis; read-out: MIC
value_kind: MIC (µg/mL)

molecule: NC1CN(c2nc3c(cc2F)c(=O)c(C(=O)O)cn3C2CC2)CC1c1ccc(Cl)c(Cl)c1 (trans isomer)
study_target: Enterococcus faecalis
result_value: 0.2
//
molecule: COC(=O)c1ccc(C2CN(c3c(F)cc4c(=O)c(C(=O)O)cn(C5CC5)c4c3F)CC2N)cc1 (stereo unspecified)
study_target: Enterococcus faecalis
result_value: 0.4
//
molecule: CN(C)c1ccc(C2CN(c3c(F)cc4c(=O)c(C(=O)O)cn(C5CC5)c4c3F)CC2N)cc1 (stereo unspecified)
study_target: Enterococcus faecalis
result_value: 0.1
//
molecule: Nc1ccc(C2CN(c3c(F)cc4c(=O)c(C(=O)O)cn(C5CC5)c4c3F)CC2N)cc1 (trans isomer)
study_target: Enterococcus faecalis
result_value: 0.1
//
molecule: NC1CN(c2c(F)cc3c(=O)c(C(=O)O)cn(C4CC4)c3c2F)CC1c1ccc(O)cc1 (trans isomer)
study_target: Enterococcus faecalis
result_value: 0.1
//
molecule: COC(=O)c1ccc(C2CN(c3nc4c(cc3F)c(=O)c(C(=O)O)cn4C3CC3)CC2N)cc1 (trans isomer)
study_target: Enterococcus faecalis
result_value: 0.4
//
molecule: COc1ccc(C2CN(c3c(F)cc4c(=O)c(C(=O)O)cn(C5CC5)c4c3F)CC2N)cc1 (trans isomer)
study_target: Enterococcus faecalis
result_value: 0.1
//
molecule: NC1CN(c2c(F)cc3c(=O)c(C(=O)O)cn(C4CC4)c3c2F)CC1c1ccccc1 (trans isomer)
study_target: Enterococcus faecalis
result_value: 0.1
//
molecule: NC1CN(c2nc3c(cc2F)c(=O)c(C(=O)O)cn3C2CC2)CC1c1ccc(O)cc1 (trans isomer)
study_target: Enterococcus faecalis
result_value: 0.1
//
molecule: Nc1c(F)c(N2CC(N)C(c3ccc(F)cc3)C2)c(F)c2c1c(=O)c(C(=O)O)cn2C1CC1 (trans isomer)
study_target: Enterococcus faecalis
result_value: 0.1
//
molecule: NC1CN(c2c(F)cc3c(=O)c(C(=O)O)cn(C4CC4)c3c2F)CC1c1ccc(F)cc1 (trans isomer)
study_target: Enterococcus faecalis
result_value: 0.1
//
molecule: NCc1cccc(C2CN(c3nc4c(cc3F)c(=O)c(C(=O)O)cn4C3CC3)CC2CN)c1 (trans isomer)
study_target: Enterococcus faecalis
result_value: 1.6
//
molecule: NC1CN(c2cc3c(cc2F)c(=O)c(C(=O)O)cn3C2CC2)CC1C1CC1 (stereo unspecified)
study_target: Enterococcus faecalis
result_value: 0.1
//
molecule: NC1CN(c2c(F)cc3c(=O)c(C(=O)O)cn(C4CC4)c3c2F)CC1c1ccc(Cl)c(Cl)c1 (trans isomer)
study_target: Enterococcus faecalis
result_value: 0.1
//
molecule: CN(C)c1ccc(C2CN(c3nc4c(cc3F)c(=O)c(C(=O)O)cn4C3CC3)CC2N)cc1 (trans isomer)
study_target: Enterococcus faecalis
result_value: 0.2
//
molecule: Nc1ccc(C2CN(c3nc4c(cc3F)c(=O)c(C(=O)O)cn4C3CC3)CC2N)cc1 (trans isomer)
study_target: Enterococcus faecalis
result_value: 0.2

Sourced from ChEMBL document CHEMBL1126564
